Please go through the items and note down their 8OG:A repair function score.
B1: library; numbered along this chain (parent)
chain: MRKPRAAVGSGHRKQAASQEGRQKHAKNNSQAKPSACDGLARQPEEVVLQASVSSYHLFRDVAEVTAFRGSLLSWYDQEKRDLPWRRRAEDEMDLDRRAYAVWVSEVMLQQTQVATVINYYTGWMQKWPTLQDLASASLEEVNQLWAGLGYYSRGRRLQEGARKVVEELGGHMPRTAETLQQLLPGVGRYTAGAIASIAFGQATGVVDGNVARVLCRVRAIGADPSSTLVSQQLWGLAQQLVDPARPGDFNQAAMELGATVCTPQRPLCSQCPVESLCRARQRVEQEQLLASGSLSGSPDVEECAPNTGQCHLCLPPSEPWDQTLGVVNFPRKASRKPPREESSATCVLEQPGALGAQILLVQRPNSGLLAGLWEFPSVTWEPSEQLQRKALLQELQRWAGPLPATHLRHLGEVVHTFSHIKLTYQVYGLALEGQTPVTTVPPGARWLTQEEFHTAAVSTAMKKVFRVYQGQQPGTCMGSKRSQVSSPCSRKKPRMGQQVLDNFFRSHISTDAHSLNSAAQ

Variants of: B1
protocol: 8OG:A repair function score (normalized; synonymous = 0, nonsense = -1) (normalized log-likelihood score); higher = more repair activity (WT-like);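 further: cells sorted at 72 h after reporter transfection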
test-settings: with 8OG:A DNA repair reporter (GFP) in HEK-293 MUTYH KO cells
One number for each entry.

Answered cases to consult:
changes=Y76W reported_endpoint="8OG:A repair function score" recorded_number=-0.136
changes=Q450S reported_endpoint="8OG:A repair function score" recorded_number=-0.114
changes=W85I reported_endpoint="8OG:A repair function score" recorded_number=-0.792
changes=S294A reported_endpoint="8OG:A repair function score" recorded_number=-0.012
changes=R154A reported_endpoint="8OG:A repair function score" recorded_number=-0.88

# return 8OG:A repair function score for each item in the list
1. P317W
2. D243E
3. H420F
4. A245T

Result:
1: -0.205; 2: -0.293; 3: -0.576; 4: -0.0132

# return 8OG:A repair function score for each item in the list
1. A223I
2. S105K
3. E341A
4. A245K

Result:
1. -0.454
2. -1.25
3. 0.0808
4. -0.0553

# return 8OG:A repair function score for each item in the list
1. C272W
2. C269S
3. R246L
4. R398Y
5. F59P

Result:
1: -1.09; 2: -1.28; 3: -0.719; 4: 0.174; 5: -0.371

# return 8OG:A repair function score for each item in the list
1. E45F
2. T417W
3. T436N
4. P84T
5. H420C
6. V328K

Result:
[-0.059, -0.253, -0.0228, -0.154, -0.465, 0.0221]

# return 8OG:A repair function score for each item in the list
1. I421K
2. S71M
3. E452W
4. L139K
5. V48Y
6. C262N
7. T406K
8. G205K

Result:
-0.173
0.00635
-0.631
-0.511
-0.141
-1.19
0.103
-0.961

# return 8OG:A repair function score for each item in the list
1. V465N
2. P442A

Result:
-0.54
-0.19

# return 8OG:A repair function score for each item in the list
1. A345W
2. E302R
3. N503V

Result:
1: -0.174; 2: -0.254; 3: -0.0118

The values you see were collected from the supplement of paper PMC11908140.
